Reported Lung tissue binding, % values are given for each entry in this list.
- procedureText: Mouse lung tissue binding (equilibrium dialysis, RED)
- Type: in vitro ADME
- measurementSetup: Table 5; sulfone-sulfide analog pairs
- Source text: Mouse lung tissue binding. A high bound fraction or percentage of JAK1/JAK2 inhibitors to lung tissue may be undesirable since it can reduce the amount of free drug available to inhibit JAK1 or JAK2. […] (b) In an alternate procedure, the extent of lung tissue binding of test compound to mouse lung homogenate may also be determined by equilibrium dialysis using Pierce RED (rapid equilibrium dialysis) devices (Fisher Scientific 89811 & 89809). […]

Example entries begin here.
compound	assayReadout	obsValue
Cn1cc(NC(=O)c2cnn3cccnc23)c(-c2cc(SC3COC3)ccc2OC(F)F)n1 [reference compound]	Lung tissue binding, %	97.4%
Cn1cc(NC(=O)c2cnn3cccnc23)c(-c2cc(S(=O)(=O)C3COC3)ccc2OC(F)F)n1 [Example 13]	Lung tissue binding, %	85.8%
Cn1cc(Sc2ccc(OC(F)F)c(-c3nn(C)cc3NC(=O)c3cnn4cccnc34)c2)cn1 [reference compound]	Lung tissue binding, %	97%
CS(=O)(=O)c1ccc(OC(F)F)c(-c2nn(CC#N)cc2NC(=O)c2cnn3cccnc23)c1 [Example 28]	Lung tissue binding, %	70.8%
CSc1ccc(OC(F)F)c(-c2nn(CC#N)cc2NC(=O)c2cnn3cccnc23)c1 [reference compound]	Lung tissue binding, %	96.9%

We next turn to a different compound, shown below.
[ask] For the compound Cn1cc(S(=O)(=O)c2ccc(OC(F)F)c(-c3nn(C)cc3NC(=O)c3cnn4cccnc34)c2)cn1 [Example 35] , what Lung tissue binding, % is on record?
[reply] 86.2%

----------
Reported Mouse LTB % values are given for each entry in this list.
- procedureText: Mouse lung tissue binding (equilibrium dialysis, RED)
- Assay type: in vitro ADME
- measurementSetup: mouse lung tissue binding, % bound (Table 3)
I only need the number, in %, no unit after it.

Example entries begin here.
compound	Mouse LTB %, %
Cn1cc(NC(=O)c2cnn3cccnc23)c(-c2cc(S(=O)(=O)CCO)ccc2OC(F)F)n1	80.1
Cn1cc(NC(=O)c2cnn3cccnc23)c(-c2cc(S(C)(=O)=O)ccc2OC(F)F)n1	85.8
CN(C)CCn1cc(S(=O)(=O)c2ccc(OC(F)F)c(-c3nn(C)cc3NC(=O)c3cnn4cccnc34)c2)cn1	84.4
C[C@@H](O)CS(=O)(=O)c1ccc(OC(F)F)c(-c2nn(C)cc2NC(=O)c2cnn3cccnc23)c1 (stereo in doubt)	85
Cn1cc(NC(=O)c2cnn3cccnc23)c(-c2cc(S(=O)(=O)C3CCC3)ccc2OC(F)F)n1	88.1

[ask] For the compound Cn1cc(NC(=O)c2cnn3cccnc23)c(-c2cc(S(=O)(=O)c3cn[nH]c3)ccc2OC(F)F)n1 , what Mouse LTB % is on record?
[reply] 91.2

----------
- procedureText: Cell cytotoxicity assay Jurkat (CellTiter-Glo, 72 hours)
- Type: cell-based
- measurementSetup: human, Jurkat clone E6-1 cells, Table 3; 72 hours, top concentration of 50 μM; read-out: Cytotox Jurkat EC50
assayReadout: EC50 at 72 h (µM)
I only need the number, in µM, no unit after it.

Example entries begin here.
compound	obsValue
Cn1cc(NC(=O)c2cnn3cccnc23)c(-c2cc(S(=O)(=O)c3ccncc3)ccc2OC(F)F)n1	6.2
Cn1cc(NC(=O)c2cnn3cccnc23)c(-c2cc(S(=O)(=O)CCCO)ccc2OC(F)F)n1	35
CCS(=O)(=O)c1ccc(OC(F)F)c(-c2nn(C)cc2NC(=O)c2cnn3cccnc23)c1	21.5
Cn1cc(NC(=O)c2cnn3cccnc23)c(-c2cc(S(=O)(=O)c3cn[nH]c3)ccc2OC(F)F)n1	35
Cn1cc(NC(=O)c2cnn3cccnc23)c(-c2cc(S(=O)(=O)N3CCC3)ccc2OC(F)F)n1	11
CS(=O)(=O)c1ccc(OC(F)F)c(-c2nn(CC#N)cc2NC(=O)c2cnn3cccnc23)c1	39
Cn1cc(NC(=O)c2cnn3cccnc23)c(-c2cc(S(=O)(=O)CCO)ccc2OC(F)F)n1	23
Cn1cc(S(=O)(=O)c2ccc(OC(F)F)c(-c3nn(C)cc3NC(=O)c3cnn4cccnc34)c2)cn1	21
CN(C)CCn1cc(S(=O)(=O)c2ccc(OC(F)F)c(-c3nn(C)cc3NC(=O)c3cnn4cccnc34)c2)cn1	24
CNS(=O)(=O)c1ccc(OC(F)F)c(-c2nn(C)cc2NC(=O)c2cnn3cccnc23)c1	12

[ask] For the compound CC(O)C(C)S(=O)(=O)c1ccc(OC(F)F)c(-c2nn(C)cc2NC(=O)c2cnn3cccnc23)c1 (single isomer, unassigned) , what EC50 at 72 h is on record?
[reply] 32

[ask] What do you get for Cn1cc(NC(=O)c2cnn3cccnc23)c(-c2cc(S(=O)(=O)C(F)F)ccc2OC(F)F)n1 ?
[reply] 3.5
